System: HEK293
Assay: Cytotoxic Profiling of Annotated Libraries Using Quantitative High-Throughput Screening (AID 1296008); also: nearly all actives have a fitted effect of over 60% in size
Conditions: Five cell lines viability, CellTiter-Glo ATP luminescence, 48-72 h
Inconclusive results are not listed. Activity calls are given as the source filed them. Calls follow the shape of the dose curve; as a rule, active = well fitted inhibition curve with a large enough effect; inconclusive = small, poorly fitted or top-dose-only effect; inactive = flat fitted curve, though single readings scatter.
Bench note: report the call from YES (active), NO (inactive)

These recorded examples may help you get a feel for the data.
COMPOUND: Nc1ccc2c(c1)CN1C(=O)c3ccccc3C1=N2
ANSWER LABEL: YES

COMPOUND: N=C(N)c1ccc(OCCCOc2ccc(C(=N)N)cc2)cc1
ANSWER LABEL: YES

COMPOUND: O=C(CCCCC(=O)Nc1c(I)cc(I)c(C(=O)O)c1I)Nc1c(I)cc(I)c(C(=O)O)c1I
ANSWER LABEL: NO

COMPOUND: CC(C)C(=O)OCc1cccc(OC(=O)[C@@H]2N3C(=O)[C@@H](NC(=O)Cc4ccccc4)[C@H]3SC2(C)C)c1
ANSWER LABEL: NO

COMPOUND: COc1cc(NS(=O)(=O)c2ccc(N)cc2)nc(C)n1
ANSWER LABEL: NO

## Task Which outcome was assigned to O=C(O)[C@H](O)[C@@H](O)[C@H](O[C@@H]1O[C@H](CO)[C@H](O)[C@H](O)[C@H]1O)[C@H](O)CO in this test?
## Result NO

## Task Outcome? COC(=O)/C=C(/C)N
## Result NO

## Task Given Nc1ccc(C(=O)N2CC3CC(CN(Cc4ccccc4)C3)C2)cc1 , state the outcome it received in this test.
## Result NO

## Task Dear all, I need the recorded test outcome for CC(=O)N[C@@H](CCC(N)=O)C(=O)O , thank you.
## Result NO

## Task Tell me the recorded outcome of this test for Cc1ccc(-c2ccccc2C#N)cc1 .
## Result NO

## Task I'd appreciate the recorded outcome for CCCCCCCCCCCCCCCC[N+](C)(C)Cc1ccccc1 from this test.
## Result YES

## Task # outcome recorded in this test, key = CCCCCCCCCCCC[N+](C)(C)Cc1ccccc1
## Result YES

## Task What is the recorded call for this compound in the test? O=C(O)Cn1cnnn1
## Result NO

## Task Hello, I am checking results. What call was entered for CCOC(=O)C1=C(C)NC(C)=C(C(=O)OCC)C1c1ccccc1/C=C/C(=O)OC(C)(C)C ?
## Result YES

## Task Kindly provide the recorded test outcome for the following compound: O=C(CO)[C@@H](O)[C@H](O)[C@@H](O)CO
## Result NO

## Task Just curious, what result did CCOC(=O)NNc1ccc(N(CC)CC(C)O)nn1 (stereo unspecified) get here?
## Result NO

## Task Just curious, what result did CC(=O)Oc1ccc(C2(c3ccc(OC(C)=O)cc3)Oc3ccccc3NC2=O)cc1 get here?
## Result YES

## Task What did this assay record as the result for CCS(=O)(=O)c1ccc(OC)c(C(=O)OC)c1 ?
## Result NO

## Task Write down the call the test reported for this compound. Item: Cc1cc2nc3ccc(=[N+](C)C)cc-3sc2cc1N
## Result YES

## Task What did the test return for CC(NC(CCc1ccccc1)C(=O)O)C(=O)N1C(=O)N(C)CC1C(=O)O (stereo unspecified) ?
## Result NO

## Task Would you mind telling me which call this test gave CCC(=O)O[C@H]1[C@H](O[C@@H]2[C@@H](C)[C@H](O[C@H]3C[C@@](C)(OC)[C@@H](O)[C@H](C)O3)[C@@H](C)C(=O)O[C@H](CC)[C@@](C)(O)[C@H](O)[C@@H](C)C(=O)[C@H](C)C[C@@]2(C)O)O[C@H](C)C[C@@H]1N(C)C ?
## Result NO
